measured_on: Histamine H1 receptor (Homo sapiens) (UniProt P35367)
Sequence (P35367 whole entry): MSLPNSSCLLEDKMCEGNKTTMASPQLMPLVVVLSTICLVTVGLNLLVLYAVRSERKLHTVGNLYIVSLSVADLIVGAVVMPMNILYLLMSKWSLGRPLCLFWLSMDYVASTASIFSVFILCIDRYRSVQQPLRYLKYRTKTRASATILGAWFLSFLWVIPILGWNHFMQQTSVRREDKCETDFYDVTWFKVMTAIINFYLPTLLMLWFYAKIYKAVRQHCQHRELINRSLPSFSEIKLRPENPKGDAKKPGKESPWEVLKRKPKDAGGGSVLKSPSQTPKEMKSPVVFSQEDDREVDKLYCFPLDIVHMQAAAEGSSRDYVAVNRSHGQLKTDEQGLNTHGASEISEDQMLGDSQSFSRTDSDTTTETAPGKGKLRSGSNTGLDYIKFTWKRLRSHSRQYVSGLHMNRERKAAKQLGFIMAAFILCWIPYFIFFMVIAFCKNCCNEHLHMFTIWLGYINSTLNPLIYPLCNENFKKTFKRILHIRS
test: Binding affinity to human histamine H1 receptor at 10 uM by radioligand binding assay
Quick list: inhibition per entry.

[
  {
    "compound_string": "CC(C)n1nc2c(cc1=O)CCc1cc(OCCCN3CCC[C@H]3C)ccc1-2",
    "inhibition": "< 40%"
  },
  {
    "compound_string": "C[C@@H]1CCCN1CCCOc1ccc2c(c1)CCc1n[nH]c(=O)cc1-2",
    "inhibition": "< 45%"
  },
  {
    "compound_string": "C[C@@H]1CCCN1CCCOc1ccc2c(c1)CCc1cc(=O)n(C)nc1-2",
    "inhibition": "< 40%"
  },
  {
    "compound_string": "C[C@@H]1CCCN1CCCOc1ccc2c(c1)CCc1cc(=O)[nH]nc1-2",
    "inhibition": "< 40%"
  }
]
